Attribute: IC50 (radioligand displacement)
tested-target: Human CB2 (Homo sapiens)
Construct: expressed in transfected cells; membrane preparation
Sequence (P34972 whole entry): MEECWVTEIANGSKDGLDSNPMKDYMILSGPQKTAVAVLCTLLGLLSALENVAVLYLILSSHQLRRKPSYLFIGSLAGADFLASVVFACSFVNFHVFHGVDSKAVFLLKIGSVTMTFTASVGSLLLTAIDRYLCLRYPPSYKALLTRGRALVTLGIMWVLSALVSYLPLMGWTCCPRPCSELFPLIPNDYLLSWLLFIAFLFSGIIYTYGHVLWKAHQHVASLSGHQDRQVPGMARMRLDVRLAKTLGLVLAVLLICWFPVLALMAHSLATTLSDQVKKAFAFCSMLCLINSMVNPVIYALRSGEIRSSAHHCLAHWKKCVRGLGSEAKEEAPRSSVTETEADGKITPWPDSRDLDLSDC
assay: Human CB2 Radioligand Binding Assay
test-parameters: membranes from stably transfected CHO CB2 cells; competition with [3H] CP-55,940; read-out: CB2 Ligand Binding Asssay

Worked examples, 8 compounds total:
- compound: "O=C(Nc1ccc(F)c(F)c1)C1CCCn2cccc2C1c1ccccc1 (single isomer, unassigned) [Example 108]"
  tested-target: "Human CB2 (Homo sapiens)"
  recorded-result: "> 1000 nM"
- compound: "CC(C)(C)c1ccc(CC2[C@@H]3CCCN3CCCN2C(=O)Nc2ccc(F)cc2F)cc1 (mixture of isomers) [Example 124]"
  tested-target: "Human CB2 (Homo sapiens)"
  recorded-result: "> 1000 nM"
- compound: "CC(C)(C)c1ccc(C2c3cccnc3CCCN2C(=O)Nc2ccc(Cl)cc2Cl)cc1 (stereo not shown) [Example 136]"
  tested-target: "Human CB2 (Homo sapiens)"
  recorded-result: "> 1000 nM"
- compound: "CC(C)(C)c1ccc(C2c3cccn3CCCN2C(=O)Cc2c(F)cccc2F)cc1 (stereo not shown) [Example 51]"
  tested-target: "Human CB2 (Homo sapiens)"
  recorded-result: "> 1000 nM"
- compound: "O=C(Nc1ccc(OC(F)(F)F)cc1)[C@H]1CCCn2cccc2[C@H]1c1ccccc1 (relative stereo) [Example 114]"
  tested-target: "Human CB2 (Homo sapiens)"
  recorded-result: "< 1000 nM"
- compound: "CC(C)(C)c1ccc(C2=C(C(=O)Nc3ccc(OC(F)(F)F)cc3)CCn3cccc32)cc1 [Example 58]"
  tested-target: "Human CB2 (Homo sapiens)"
  recorded-result: "> 1000 nM"
- compound: "O=C(Nc1ccc(C(F)(F)F)cc1)C1=C(c2ccccc2)c2cccn2CCC1 [Example 74]"
  tested-target: "Human CB2 (Homo sapiens)"
  recorded-result: "> 1000 nM"
- compound: "Cc1cccc(C2c3cccn3CCCN2C(=O)Nc2ccc(F)cc2F)c1 (stereo not shown) [Example 10]"
  tested-target: "Human CB2 (Homo sapiens)"
  recorded-result: "> 1000 nM"

The reported IC50 (radioligand displacement) value, Human CB2 (Homo sapiens), for CC(C)(C)c1ccc(C2=C(C(=O)Nc3ccc(C(F)(F)F)cc3)CCn3cccc32)cc1 [Example 132] reads < 1000 nM

With Human CB2 (Homo sapiens) as the test system, CC(C)(C)C1CCC(C2c3cccn3CCCN2C(=O)c2ccc(F)cc2F)CC1 (stereo not shown) [Example 45] showed IC50 (radioligand displacement) of < 1000 nM

Tested on Human CB2 (Homo sapiens): CC(C)(C)c1ccc(C2[C@@H]3CCCN3CCCN2C(=O)Nc2ccc(Cl)cc2)cc1 (stereo partly shown) [Example 131] . Observed IC50 (radioligand displacement): < 1000 nM

The recorded IC50 (radioligand displacement) with Human CB2 (Homo sapiens) for CC(C)(C)c1ccc(C2c3cncn3CCCN2C(=O)Nc2ccc(F)cc2F)cc1 (stereo not shown) [Example 37] was < 1000 nM

Response field IC50 (radioligand displacement) (Human CB2 (Homo sapiens)) for item CC(C)(C)c1ccc(C2=C(NC(=O)Nc3ccc(F)c(F)c3)CCCn3cccc32)cc1 [Example 85] : < 1000 nM

Human CB2 (Homo sapiens) IC50 (radioligand displacement) of COc1ccc(COC(=O)NC2=C(c3ccc(C(C)(C)C)cc3)c3cccn3CCC2)cc1 [Example 89] is > 1000 nM

The measured IC50 (radioligand displacement) that O=C(Nc1ccc(OC(F)(F)F)cc1)C1CCCn2cccc2C1c1ccccc1 (single isomer, unassigned) [Example 113] showed for Human CB2 (Homo sapiens) is > 1000 nM

# lookup: CC(C)(C)c1ccc(C2NCCCn3cccc32)cc1 (stereo not shown) [Example 6] on Human CB2 (Homo sapiens), IC50 (radioligand displacement) = > 1000 nM
